Data credit: DBAASP

Endpoint name: MIC (µM)
Note: unit µM is implicit; provide only the numeric part.

Missing value: MIC, Staphylococcus aureus NCTC 10788, entry "CC[C@H](C)[C@H](NC(=O)[C@H](CCCCN)NC(=O)[C@H](CCCCN)NC(=O)[C@@H](NC(=O)[C@H](CC(C)C)NC(=O)[C@H](CCCCN)NC(=O)[C@@H]1CCCN1C(=O)[C@@H](NC(=O)[C@H](CC(C)C)NC(=O)[C@H](CO)NC(=O)[C@H](CC(C)C)NC(=O)[C@@H](N)Cc1ccccc1)[C@@H](C)CC)C(C)C)C(=O)N[C@H](C(=O)N[C@@H](CCCCN)C(=O)N[C@@H](C)C(=O)N[C@@H](Cc1ccccc1)C(=O)N[C@@H](CCCCN)C(=O)O)[C@@H](C)CC" . Fill in?
2.5

Missing value: MIC, Staphylococcus aureus NCTC 10788, entry "CC[C@H](C)[C@H](NC(=O)[C@H](C)NC(=O)[C@H](CCCCN)NC(=O)[C@@H]1CCCN1C(=O)[C@@H](NC(=O)[C@H](CC(C)C)NC(=O)[C@H](CCCCN)NC(=O)[C@H](Cc1ccccc1)NC(=O)[C@H](CC(C)C)NC(=O)[C@@H](N)Cc1ccccc1)[C@@H](C)CC)C(=O)N[C@@H](CCCCN)C(=O)NCC(=O)N[C@@H](CC(C)C)C(=O)N[C@H](C(=O)N[C@@H](CCCCN)C(=O)N[C@@H](C)C(=O)N[C@H](C(=O)N[C@@H](CCCN=C(N)N)C(=O)N[C@@H](CCCCN)C(N)=O)[C@@H](C)CC)C(C)C" . Fill in?
1.83

---

These compounds were tested on Salmonella enterica subsp. enterica serovar Typhimurium C77-31; MIC is the recorded read-out.

Quick one: MIC of "CC[C@H](C)[C@H](NC(=O)[C@H](CCCN=C(N)N)NC(=O)[C@H](C)NC(=O)[C@H](C)N)C(=O)N[C@H](C(=O)N[C@@H](CC(C)C)C(=O)N[C@@H](CCCN=C(N)N)C(=O)N[C@H](C(=O)N[C@@H](CCCN=C(N)N)C(=O)N[C@@H](Cc1ccccc1)C(=O)N[C@@H](CCCN=C(N)N)C(N)=O)[C@@H](C)O)[C@@H](C)CC" ?
16 µM

Quick one: MIC of "CC[C@H](C)[C@H](N)C(=O)N[C@@H](CS)C(=O)N[C@@H](CCCN=C(N)N)C(=O)N[C@@H](CCCCN)C(=O)N1CCC[C@H]1C(=O)N[C@H](C(=O)N[C@H](C(=O)N[C@@H](CS)C(=O)N[C@@H](CCCN=C(N)N)C(=O)N[C@@H](CCCCN)C(=O)N1CCC[C@H]1C(=O)N[C@H](C(N)=O)[C@@H](C)CC)[C@@H](C)CC)[C@@H](C)CC" ?
≥ 64 µM

Quick one: MIC of "CC[C@H](C)[C@H](NC(=O)[C@H](CCCN=C(N)N)NC(=O)[C@H](C)NC(=O)[C@H](C)N)C(=O)N[C@H](C(=O)N[C@@H](CC(C)C)C(=O)N[C@@H](CCCN=C(N)N)C(=O)N[C@@H](Cc1c[nH]c2ccccc12)C(=O)N[C@@H](CCCN=C(N)N)C(=O)N[C@@H](Cc1ccccc1)C(=O)N[C@@H](CCCN=C(N)N)C(N)=O)[C@@H](C)CC" ?
4 µM

Quick one: MIC of "CC[C@H](C)[C@H](NC(=O)[C@H](CCCN=C(N)N)NC(=O)[C@H](CCCCN)NC(=O)[C@H](Cc1ccccc1)NC(=O)[C@H](CCC(=O)O)NC(=O)[C@H](CCCCN)NC(=O)CN)C(=O)N[C@H](C(=O)N[C@@H](Cc1c[nH]c2ccccc12)C(=O)N[C@@H](CC(C)C)C(=O)N[C@@H](CO)C(=O)N[C@@H](CCCCN)C(=O)N[C@H](C(=O)N[C@@H](C)C(=O)N[C@@H](CCCCN)C(=O)N[C@@H](CCCCN)C(=O)N[C@@H](CC(C)C)C(N)=O)[C@@H](C)O)C(C)C" ?
≥ 128 µM
